Please provide measured half-life for the entries that follow.
method-description: Half life on i.v. administration of 2 mg/kg was measured in dog
Type: ADME, organism-based, Canis lupus familiaris
Set-up: dose 2 mg/kg, route intravenous
test-context: in vivo, iv
Write the figure, then the unit, nothing else.

Please give the measured half-life for this compound: C=CCN(C(=O)c1cc(C)cc(OCCCONC(=N)N)c1)C1CCCC1
3.7 h

Sample Cc1cc(OCC2(CONC(=N)N)CC2)cc(C(=O)N(Cc2ccoc2)CC2CC2)c1 — what was its half-life?
5.9 h

What value of half-life has been reported for the following compound? CCCN(Cc1ccoc1)C(=O)c1cc(C)cc(OCC2(CON=C(N)N)CC2)c1
4.4 h

Fill in the blank: the reported half-life of Cc1cc(OCCCONC(=N)N)cc(C(=O)N(Cc2ccoc2)CC2CC2)c1 is ____.
2.5 h

Quick check: half-life of CCCN(Cc1ccoc1)C(=O)c1cc(C)cc(OCCCONC(=N)N)c1 ?
3.8 h

The measurements presented in this section are drawn from ChEMBL document CHEMBL1146801.
